Where do the numbers come from? From patent US20250257059A1.

Data export: pIC50 values recorded with full-length human PTPN2 (TC45) (1-387) (Homo sapiens (Human), UniProt P17706).
Sequence (P17706 other isoform, or with tags, fused parts or gaps): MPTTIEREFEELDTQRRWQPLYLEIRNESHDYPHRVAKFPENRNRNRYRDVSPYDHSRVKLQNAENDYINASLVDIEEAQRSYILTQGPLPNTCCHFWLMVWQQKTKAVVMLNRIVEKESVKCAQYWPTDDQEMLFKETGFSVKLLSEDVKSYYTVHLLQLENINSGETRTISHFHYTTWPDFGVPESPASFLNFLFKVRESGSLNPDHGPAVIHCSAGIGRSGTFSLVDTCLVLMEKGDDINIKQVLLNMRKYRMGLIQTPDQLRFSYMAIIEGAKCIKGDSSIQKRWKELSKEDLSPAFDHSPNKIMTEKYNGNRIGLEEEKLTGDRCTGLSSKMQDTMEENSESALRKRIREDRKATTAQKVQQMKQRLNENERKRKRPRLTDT
Please treat pIC50 as minus the base-10 logarithm of the molar concentration.

Please review the following examples before continuing.
CCCCCCN1CCC(Cc2cc(O)c(N3CC(=O)NS3(=O)=O)c(F)c2)C1 (centres unmarked): 7.89
CCN1CCCC(Cc2cc(O)c(N3CC(=O)NS3(=O)=O)c(F)c2)C1 (centres unmarked): 7.20
CC(C)(C)CCN1CCC(Cc2cc(O)c(N3CC(=O)NS3(=O)=O)c(F)c2)C1 (centres unmarked): 7.85
O=C1CN(c2c(O)cc(CCN3CCC(F)(F)CC3)cc2F)S(=O)(=O)N1: 8.30
CC(C)CCN1CCC(CCc2cc(O)c(N3CC(=O)NS3(=O)=O)c(F)c2)C1 (centres unmarked): 7.05
O=C1CN(c2c(O)cc(CC3CCCN(CC4CCCO4)C3)cc2F)S(=O)(=O)N1 (centres unmarked): 7.20
O=C1CN(c2c(O)cc(CCN3CC[C@@H](F)C3)cc2F)S(=O)(=O)N1: 8.70
O=C1CN(c2c(O)cc(CC3CCN(Cc4ccoc4)C3)cc2F)S(=O)(=O)N1 (centres unmarked): 7.92
O=C1CN(c2c(O)cc(CC3CCNC3)cc2F)S(=O)(=O)N1 (centres unmarked): 8.15
O=C1CN(c2c(O)cc(CC3CCN(Cc4cnco4)C3)cc2F)S(=O)(=O)N1 (centres unmarked): 7.85

// below: pIC50 requested for another compound
Item: O=C1CN(c2c(O)cc(C[C@H]3CCNC3)cc2F)S(=O)(=O)N1 (single isomer, unassigned) | pIC50: 7.82

* * *

Data export: pIC50 values recorded with full-length human PTPN2 (TC45) (1-387) (Homo sapiens (Human), UniProt P17706).
Please treat pIC50 as minus the base-10 logarithm of the molar concentration.

Please review the following examples before continuing.
CC(C)(C)C1CCN(CCc2cc(O)c(N3CC(=O)NS3(=O)=O)c(F)c2)CC1: 8.52
CC1(C)CCN(CCc2cc(O)c(N3CC(=O)NS3(=O)=O)c(F)c2)CC1: 8.52
O=C1CN(c2c(O)cc(CC3CCCN(CC4CCNCC4)C3)cc2F)S(=O)(=O)N1 (centres unmarked): 8.40
CC[C@@H]1CCN(CCc2cc(O)c(N3CC(=O)NS3(=O)=O)c(F)c2)C1: 8.70
O=C1CN(c2c(O)cc(CCN3CCC(CC(F)(F)F)C3)cc2F)S(=O)(=O)N1 (centres unmarked): 9.00
CCCC1NCCC1Cc1cc(O)c(N2CC(=O)NS2(=O)=O)c(F)c1 (centres unmarked): 7.64

Summary line: O=C1CN(c2c(O)cc(CCN3CCCC3)cc2F)S(=O)(=O)N1 , full-length human PTPN2 (TC45) (1-387) (Homo sapiens (Human), UniProt P17706), reported pIC50 = 8.52

Summary line: CN1CCCCC1Cc1ccc(O)c(N2CC(=O)NS2(=O)=O)c1F (centres unmarked) , full-length human PTPN2 (TC45) (1-387) (Homo sapiens (Human), UniProt P17706), reported pIC50 = 6.79

Summary line: CC(C)CCN1CCC(Cc2cc(O)c(N3CC(=O)NS3(=O)=O)c(F)c2)C1 (centres unmarked) , full-length human PTPN2 (TC45) (1-387) (Homo sapiens (Human), UniProt P17706), reported pIC50 = 7.92

Summary line: O=C1CN(c2c(O)cc(CC3CCCN(Cc4ncc[nH]4)C3)cc2F)S(=O)(=O)N1 (centres unmarked) , full-length human PTPN2 (TC45) (1-387) (Homo sapiens (Human), UniProt P17706), reported pIC50 = 7.36

Summary line: CC(C)C1CN(CCc2cc(O)c(N3CC(=O)NS3(=O)=O)c(F)c2)C1 , full-length human PTPN2 (TC45) (1-387) (Homo sapiens (Human), UniProt P17706), reported pIC50 = 8.52

Summary line: CN1CCC(CCc2cc(O)c(N3CC(=O)NS3(=O)=O)c(F)c2)C1 (centres unmarked) , full-length human PTPN2 (TC45) (1-387) (Homo sapiens (Human), UniProt P17706), reported pIC50 = 7.72

Summary line: O=C1CN(c2c(O)cc(CC3CCN(Cc4ccn[nH]4)C3)cc2F)S(=O)(=O)N1 (centres unmarked) , full-length human PTPN2 (TC45) (1-387) (Homo sapiens (Human), UniProt P17706), reported pIC50 = 8.15

Summary line: O=C1CN(c2c(O)ccc(CC3CCCCN3CCc3ccccc3)c2F)S(=O)(=O)N1 (centres unmarked) , full-length human PTPN2 (TC45) (1-387) (Homo sapiens (Human), UniProt P17706), reported pIC50 = 7.89

Summary line: O=C1CN(c2c(O)cc(CCN3CC4CCC3C4)cc2F)S(=O)(=O)N1 (centres unmarked) , full-length human PTPN2 (TC45) (1-387) (Homo sapiens (Human), UniProt P17706), reported pIC50 = 8.52

Summary line: O=C1CN(c2c(O)cc(C[C@@H]3CCNC3)cc2F)S(=O)(=O)N1 (single isomer, unassigned) , full-length human PTPN2 (TC45) (1-387) (Homo sapiens (Human), UniProt P17706), reported pIC50 = 8.10

Summary line: CC(C)CCN1CCCC[C@@H]1Cc1ccc(O)c(N2CC(=O)NS2(=O)=O)c1F (single isomer, unassigned) , full-length human PTPN2 (TC45) (1-387) (Homo sapiens (Human), UniProt P17706), reported pIC50 = 8.52

Summary line: O=C1CN(c2c(O)cc(CC3CCN(Cc4cocn4)C3)cc2F)S(=O)(=O)N1 (centres unmarked) , full-length human PTPN2 (TC45) (1-387) (Homo sapiens (Human), UniProt P17706), reported pIC50 = 7.80

Summary line: CC(C)CC1CCN(CCc2cc(O)c(N3CC(=O)NS3(=O)=O)c(F)c2)C1 (centres unmarked) , full-length human PTPN2 (TC45) (1-387) (Homo sapiens (Human), UniProt P17706), reported pIC50 = 8.70

Summary line: CC(C)CC1CCN(Cc2cc(O)c(N3CC(=O)NS3(=O)=O)c(F)c2)C1 (centres unmarked) , full-length human PTPN2 (TC45) (1-387) (Homo sapiens (Human), UniProt P17706), reported pIC50 = 7.18

Summary line: O=C1CN(c2c(O)cc(CC3CCCNC3)cc2F)S(=O)(=O)N1 (centres unmarked) , full-length human PTPN2 (TC45) (1-387) (Homo sapiens (Human), UniProt P17706), reported pIC50 = 7.12

Summary line: CC(C)CN1CCC(CCc2cc(O)c(N3CC(=O)NS3(=O)=O)c(F)c2)C1 (centres unmarked) , full-length human PTPN2 (TC45) (1-387) (Homo sapiens (Human), UniProt P17706), reported pIC50 = 7.12

Summary line: CC(C)CN1CCCC(Cc2cc(O)c(N3CC(=O)NS3(=O)=O)c(F)c2)C1 (centres unmarked) , full-length human PTPN2 (TC45) (1-387) (Homo sapiens (Human), UniProt P17706), reported pIC50 = 7.04

* * *

system-under-test: full-length human PTPN2 (TC45) (1-387) (Homo sapiens (Human))
pIC50: −log10 of the molar value.
Answer -1 if pIC50 is under 8, and 1 if it is 8 or more.

Take a look at these entries with their results.
CCC1CCN(CCc2cc(O)c(N3CC(=O)NS3(=O)=O)c(F)c2)CC1 [Example 125]: 1
CC1(F)CCN(CCc2cc(O)c(N3CC(=O)NS3(=O)=O)c(F)c2)C1 (stereo not drawn) [Example 106]: 1
O=C1CN(c2c(O)cc(CC3CCCN(CC4CCC4)C3)cc2F)S(=O)(=O)N1 (stereo not drawn) [Example 32]: -1

Consider the record given below.
Is the recorded value of pIC50 equal to or greater than 8 for this compound? CCCC1CCCN1Cc1cc(O)c(N2CC(=O)NS2(=O)=O)c(F)c1 (stereo not drawn) [Example 70]
-1

* * *

system-under-test: full-length human PTPN2 (TC45) (1-387) (Homo sapiens (Human), UniProt P17706)
protocol: Enzymatic assay used to determine potency of PTPN2 inhibitors (full length PTPN2 DiFMUP assay)
Assay type: biochemical
measurement-parameters: 0.5 nM PTPN2, 100 μM DiFMUP, 30 min at room temperature
Reported IC50 values follow for various compounds
State the answer as a number, implicitly in nM.

Item: O=C1CN(c2c(O)ccc(CC3CCCCN3)c2F)S(=O)(=O)N1 (stereo not shown) | IC50: 20

Item: O=C1CN(c2c(O)cc(CC3CCCN(Cc4ccn[nH]4)C3)cc2F)S(=O)(=O)N1 (stereo not shown) | IC50: 35

Item: O=C1CN(c2c(O)cc(CC3CCN(CC4CCOC4)C3)cc2F)S(=O)(=O)N1 (stereo not shown) | IC50: 24

Item: O=C1CN(c2c(O)cc(CCN3CCC(C4CCC4)CC3)cc2F)S(=O)(=O)N1 | IC50: 2
